conditions: in ethanol, 323.15 K
recorded metric: solubility (mole fraction)

structure	obs value
COC1=CC(=O)C[C@@H](C)[C@]12Oc1c(Cl)c(OC)cc(OC)c1C2=O	0.00112

* * *

conditions: in NMP, 283.15 K

structure	solubility (mole fraction)
COC1=CC(=O)C[C@@H](C)[C@]12Oc1c(Cl)c(OC)cc(OC)c1C2=O	0.0344

* * *

conditions: in DMF, 288.15 K

structure	solubility (mole fraction)
COC1=CC(=O)C[C@@H](C)[C@]12Oc1c(Cl)c(OC)cc(OC)c1C2=O	0.0061

* * *

details: in methanol, 323.15 K
recorded metric: solubility (mole fraction)

structure	recorded metric	obs value
COC1=CC(=O)C[C@@H](C)[C@]12Oc1c(Cl)c(OC)cc(OC)c1C2=O	solubility (mole fraction)	0.00133

* * *

details: in methanol, 313.15 K
recorded metric: solubility (mole fraction)

structure	obs value
COC1=CC(=O)C[C@@H](C)[C@]12Oc1c(Cl)c(OC)cc(OC)c1C2=O	0.000929

* * *

conditions: in ethanol, 278.15 K

structure	solubility (mole fraction)
COC1=CC(=O)C[C@@H](C)[C@]12Oc1c(Cl)c(OC)cc(OC)c1C2=O	0.000218

* * *

conditions: in NMP, 278.15 K

structure	solubility (mole fraction)
COC1=CC(=O)C[C@@H](C)[C@]12Oc1c(Cl)c(OC)cc(OC)c1C2=O	0.0324

* * *

conditions: in NMP, 323.15 K

structure	solubility (mole fraction)
COC1=CC(=O)C[C@@H](C)[C@]12Oc1c(Cl)c(OC)cc(OC)c1C2=O	0.0573

* * *

settings: in water, 308.15 K
recorded metric: solubility (mole fraction)

structure	obs value
COC1=CC(=O)C[C@@H](C)[C@]12Oc1c(Cl)c(OC)cc(OC)c1C2=O	7.18e-07

* * *

conditions: in DMF, 303.15 K
recorded metric: solubility (mole fraction)

structure	obs value
COC1=CC(=O)C[C@@H](C)[C@]12Oc1c(Cl)c(OC)cc(OC)c1C2=O	0.00933

* * *

conditions: in water, 323.15 K
recorded metric: solubility (mole fraction)

structure	recorded metric	obs value
COC1=CC(=O)C[C@@H](C)[C@]12Oc1c(Cl)c(OC)cc(OC)c1C2=O	solubility (mole fraction)	1.36e-06

* * *

settings: in NMP, 293.15 K
recorded metric: solubility (mole fraction)

structure	recorded metric	obs value
COC1=CC(=O)C[C@@H](C)[C@]12Oc1c(Cl)c(OC)cc(OC)c1C2=O	solubility (mole fraction)	0.0394

* * *

details: in DMF, 278.15 K

structure	solubility (mole fraction)
COC1=CC(=O)C[C@@H](C)[C@]12Oc1c(Cl)c(OC)cc(OC)c1C2=O	0.00484
